Target: NS3/NS4 complexes (Hepatitis C virus genotype 1a)
Sequence (P27958 1027-1657): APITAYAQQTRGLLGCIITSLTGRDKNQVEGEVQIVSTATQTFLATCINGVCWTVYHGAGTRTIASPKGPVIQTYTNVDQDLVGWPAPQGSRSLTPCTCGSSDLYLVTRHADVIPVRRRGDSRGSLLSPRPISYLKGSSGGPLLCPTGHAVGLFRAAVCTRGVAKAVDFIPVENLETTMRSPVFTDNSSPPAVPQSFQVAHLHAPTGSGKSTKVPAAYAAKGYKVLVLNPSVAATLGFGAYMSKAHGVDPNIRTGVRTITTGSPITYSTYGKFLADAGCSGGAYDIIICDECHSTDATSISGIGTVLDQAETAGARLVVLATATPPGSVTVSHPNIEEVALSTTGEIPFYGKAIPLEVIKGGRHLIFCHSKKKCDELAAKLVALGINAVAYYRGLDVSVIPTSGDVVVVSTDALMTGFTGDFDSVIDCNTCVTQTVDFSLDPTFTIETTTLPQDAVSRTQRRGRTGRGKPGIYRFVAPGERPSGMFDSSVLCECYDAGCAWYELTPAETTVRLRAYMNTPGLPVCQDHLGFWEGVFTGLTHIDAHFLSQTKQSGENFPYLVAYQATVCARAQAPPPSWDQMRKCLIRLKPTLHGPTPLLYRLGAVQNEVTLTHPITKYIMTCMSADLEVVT
Sequence (P27958 1658-1711): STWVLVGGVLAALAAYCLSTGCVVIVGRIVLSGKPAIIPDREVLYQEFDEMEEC
Test: NS3/NS4 inhibition activity (IC50)
Assay type: biochemical
Conditions: Table 2, read-out: IC50
The reader will find reported IC50 values listed item by item below.
measurement_name: IC50

compound: COc1ccc2c(O[C@@H]3C[C@H]4C(=O)N[C@]5(C(=O)NS(=O)(=O)N6CCCCC6)C[C@H]5/C=C\CCCCC[C@H](Nc5ccccc5)C(=O)N4C3)cc(-c3nc(C(C)C)cs3)nc2c1C [Compound 456]
system_name: NS3/NS4 complexes (Hepatitis C virus genotype 1a)
measurement_name: IC50
result: < 0.01 µM
//
compound: COc1cccc(N[C@H]2CCCCC/C=C\[C@@H]3C[C@@]3(C(=O)O)NC(=O)[C@@H]3C[C@@H](Oc4nc5ccccc5s4)CN3C2=O)c1 [Compound 132]
system_name: NS3/NS4 complexes (Hepatitis C virus genotype 1a)
measurement_name: IC50
result: 0.075 to 0.5 µM
//
compound: COc1ccc2c(O[C@@H]3C[C@H]4C(=O)N[C@]5(C(=O)NS(=O)(=O)C6(C)CC6)C[C@H]5/C=C\CCCCC[C@H](Nc5ccc(F)c(C(F)(F)F)c5)C(=O)N4C3)cc(-c3nc(C(C)C)cs3)nc2c1C [Compound 374]
system_name: NS3/NS4 complexes (Hepatitis C virus genotype 1a)
measurement_name: IC50
result: < 0.01 µM
//
compound: COc1ccc2c(O[C@@H]3C[C@H]4C(=O)N[C@]5(C(=O)NS(=O)(=O)C6CC6)C[C@H]5/C=C\CCCCC[C@H](Nc5ccc(F)c(C(F)(F)F)c5)C(=O)N4C3)cc(-c3ccccc3)nc2c1 [Compound 356]
system_name: NS3/NS4 complexes (Hepatitis C virus genotype 1a)
measurement_name: IC50
result: < 0.01 µM
//
compound: COc1ccc2c(O[C@@H]3C[C@H]4C(=O)N[C@]5(C(=O)NS(=O)(=O)N(C)C)C[C@H]5/C=C\CCCCC[C@H](Nc5ccccc5)C(=O)N4C3)cc(-c3nc(C(C)C)cs3)nc2c1C [Compound 412]
system_name: NS3/NS4 complexes (Hepatitis C virus genotype 1a)
measurement_name: IC50
result: < 0.01 µM
//
compound: COc1ccc2c(O[C@@H]3C[C@H]4C(=O)N[C@]5(C(=O)NS(=O)(=O)C6(C)CC6)C[C@H]5/C=C\CCCCC[C@H](Nc5nc6ccccc6o5)C(=O)N4C3)cc(-c3nc(C(C)C)cs3)nc2c1C [Compound 379]
system_name: NS3/NS4 complexes (Hepatitis C virus genotype 1a)
measurement_name: IC50
result: < 0.01 µM
//
compound: CC1(S(=O)(=O)NC(=O)[C@@]23C[C@H]2/C=C\CCCCC[C@H](Nc2ccc(F)cc2)C(=O)N2C[C@H](Oc4nc5ccccc5s4)C[C@H]2C(=O)N3)CC1 [Compound 349]
system_name: NS3/NS4 complexes (Hepatitis C virus genotype 1a)
measurement_name: IC50
result: < 0.01 µM
//
compound: COc1ccc2c(O[C@@H]3C[C@H]4C(=O)N[C@]5(C(=O)NS(=O)(=O)C6(C)CC6)C[C@H]5/C=C\CCCCC[C@H](Nc5ccc(F)c(F)c5)C(=O)N4C3)cc(-c3nc(C(C)C)cs3)nc2c1C [Compound 473]
system_name: NS3/NS4 complexes (Hepatitis C virus genotype 1a)
measurement_name: IC50
result: < 0.01 µM
//
compound: COc1ccc2c(O[C@@H]3C[C@H]4C(=O)N[C@]5(C(=O)O)C[C@H]5/C=C\CCCCC[C@H](Nc5cccc(F)c5)C(=O)N4C3)cc(-c3nc(C(C)C)cs3)nc2c1C [Compound 448]
system_name: NS3/NS4 complexes (Hepatitis C virus genotype 1a)
measurement_name: IC50
result: < 0.01 µM
//
compound: O=C1N[C@]2(C(=O)O)C[C@H]2/C=C\CCCCC[C@H](Nc2cccc(C(F)(F)F)c2)C(=O)N2C[C@H](Oc3nc4ccccc4s3)C[C@@H]12 [Compound 110]
system_name: NS3/NS4 complexes (Hepatitis C virus genotype 1a)
measurement_name: IC50
result: 0.01 to 0.075 µM
//
compound: CC1(S(=O)(=O)NC(=O)[C@@]23C[C@H]2/C=C\CCCCC[C@H](Nc2ccccc2)C(=O)N2C[C@H](Oc4nc5ccccc5s4)C[C@H]2C(=O)N3)CC1 [Compound 213]
system_name: NS3/NS4 complexes (Hepatitis C virus genotype 1a)
measurement_name: IC50
result: < 0.01 µM
//
compound: CC1(S(=O)(=O)NC(=O)[C@@]23C[C@H]2/C=C\CCCCC[C@H](Nc2ccc(C(F)(F)F)cc2)C(=O)N2C[C@H](Oc4nc5ccccc5s4)C[C@H]2C(=O)N3)CC1 [Compound 330]
system_name: NS3/NS4 complexes (Hepatitis C virus genotype 1a)
measurement_name: IC50
result: < 0.01 µM
//
compound: CC1(S(=O)(=O)NC(=O)[C@@]23C[C@H]2/C=C\CCCCC[C@H](Nc2cccc(C(F)(F)F)c2)C(=O)N2C[C@H](Oc4nc5ccc(Br)cc5s4)C[C@H]2C(=O)N3)CC1 [Compound 223]
system_name: NS3/NS4 complexes (Hepatitis C virus genotype 1a)
measurement_name: IC50
result: < 0.01 µM
//
compound: O=C1N[C@]2(C(=O)O)C[C@H]2/C=C\CCCCC[C@H](Nc2ccc3ccccc3c2)C(=O)N2C[C@H](Oc3nc4ccccc4s3)C[C@@H]12 [Compound 327]
system_name: NS3/NS4 complexes (Hepatitis C virus genotype 1a)
measurement_name: IC50
result: 0.01 to 0.075 µM
//
compound: CC1(S(=O)(=O)NC(=O)[C@@]23C[C@H]2/C=C\CCCCC[C@H](Nc2cc(F)cc(C(F)(F)F)c2)C(=O)N2C[C@H](Oc4nc5ccccc5o4)C[C@H]2C(=O)N3)CC1 [Compound 353]
system_name: NS3/NS4 complexes (Hepatitis C virus genotype 1a)
measurement_name: IC50
result: < 0.01 µM
//
compound: CC1(S(=O)(=O)NC(=O)[C@@]23C[C@H]2/C=C\CCCCC[C@H](Nc2cccc(Cl)c2)C(=O)N2C[C@H](Oc4nc5ccccc5s4)C[C@H]2C(=O)N3)CC1 [Compound 337]
system_name: NS3/NS4 complexes (Hepatitis C virus genotype 1a)
measurement_name: IC50
result: < 0.01 µM
//
compound: COc1ccc2c(O[C@@H]3C[C@H]4C(=O)N[C@]5(C(=O)NS(=O)(=O)C6(C)CC6)C[C@H]5/C=C\CCCCC[C@H](Nc5ccc(C(F)(F)F)cc5)C(=O)N4C3)cc(-c3nc(C(C)C)cs3)nc2c1C [Compound 445]
system_name: NS3/NS4 complexes (Hepatitis C virus genotype 1a)
measurement_name: IC50
result: < 0.01 µM
//
compound: CCn1c(O[C@@H]2C[C@H]3C(=O)N[C@]4(C(=O)O)C[C@H]4/C=C\CCCCC[C@H](Nc4cc(F)cc(C(F)(F)F)c4)C(=O)N3C2)nc2ccccc21 [Compound 318]
system_name: NS3/NS4 complexes (Hepatitis C virus genotype 1a)
measurement_name: IC50
result: < 0.01 µM
//
compound: CC(C)n1c(O[C@@H]2C[C@H]3C(=O)N[C@]4(C(=O)O)C[C@H]4/C=C\CCCCC[C@H](Nc4cc(F)cc(C(F)(F)F)c4)C(=O)N3C2)nc2ccccc21 [Compound 320]
system_name: NS3/NS4 complexes (Hepatitis C virus genotype 1a)
measurement_name: IC50
result: < 0.01 µM
//
compound: O=C1N[C@]2(C(=O)O)C[C@H]2/C=C\CCCCC[C@H](Nc2cc(F)cc(F)c2)C(=O)N2C[C@H](Oc3nc4ccccc4s3)C[C@@H]12 [Compound 324]
system_name: NS3/NS4 complexes (Hepatitis C virus genotype 1a)
measurement_name: IC50
result: 0.01 to 0.075 µM
